# Test system: Purkinje-Fasern aus Hundeherzen
# experiment_description: Electrophysiological studies on Purkinje fibres from dog hearts (Vmax)
# Format: cell-based, Hund
# recorded_conditions: specifically stronger activity at higher frequencies
measurement_kind: Rate-Faktor von Vmax

Here's what some known entries look like.
molecule	system_tested	reported_value
CCCNCC(O)COc1cc(CCC(=O)c2c(C)cc(C)cc2C)ccc1OC.O=C(O)C(=O)O (stereo not shown)	Purkinje-Fasern aus Hundeherzen	1,03
COc1ccc(CCC(=O)c2ccc3ccccc3c2)cc1OCC(O)CNC(C)C.Cl (stereo not shown)	Purkinje-Fasern aus Hundeherzen	4,00

For each entry beneath this line, provide reported Rate-Faktor von Vmax.
1. COc1ccc(C(=O)CCc2ccc(OC)c(OCC(O)CNC(C)(C)C)c2)cc1OC.Cl (stereo not shown)
2. COc1ccc(CCC(=O)c2ccc(C)cc2)cc1OCC(O)CNC(C)(C)C.Cl (stereo not shown)

(A)
1,21
1,51

* * *

Assign LD50 to each entry below.
# experiment_description: Acute toxicity LD50 in mice, i.v.
# recorded_conditions: mouse, in vivo, iv; Maus (i.v.); read-out: LD₅₀
One number for each entry, in mg/kg.

Here's what some known entries look like.
compound	LD50 [mg/kg]
COc1ccc(CCC(=O)c2cc(OC)c(OC)c(OC)c2)cc1OCC(O)CNC(C)(C)C.Cl (stereo not drawn) [Beispiel 31]	18
CCC(C)(C)NCC(O)COc1cc(CCC(=O)c2ccc(C)cc2)ccc1OC.Cl (stereo not drawn) [Beispiel 36]	18

Moving on to another compound below.
(Q) Quote LD50 reported for CCC(C)(C)NCC(O)COc1cc(CCC(=O)c2cc(OC)c(OC)c(OC)c2)ccc1OC.Cl (stereo not drawn) [Beispiel 28] please.
(A) 16
